src = the supplement of paper PMC10883282

Listing of entries alongside the reported relative viability.
# Tested on: KHOS-NP
# protocol description: relative viability vs DMSO control (72 h) (fraction); higher = more viable cells
# experimental setup: 0.3704 µM
Could you keep your reply to the number by itself?

Field relative viability (entry `COc1cc2c(Oc3ccc4[nH]c(C)cc4c3F)ncnc2cc1OCCCN1CCCC1` ) reads 1.07

Reported relative viability ( `Cn1cc(-c2cc3c(N4CCN(c5ncc([C@@](C)(N)c6ccc(F)cc6)cn5)CC4)ncnn3c2)cn1` ) = 0.948

Per the records, this compound ( `C=CC(=O)N1CCC([C@@H]2CCNc3c(C(N)=O)c(-c4ccc(Oc5ccccc5)cc4)nn32)CC1` ) has relative viability equal to 1.04
